SYSTEM UNDER TEST: LDHB (Homo sapiens)
Sequence (P07195 whole entry): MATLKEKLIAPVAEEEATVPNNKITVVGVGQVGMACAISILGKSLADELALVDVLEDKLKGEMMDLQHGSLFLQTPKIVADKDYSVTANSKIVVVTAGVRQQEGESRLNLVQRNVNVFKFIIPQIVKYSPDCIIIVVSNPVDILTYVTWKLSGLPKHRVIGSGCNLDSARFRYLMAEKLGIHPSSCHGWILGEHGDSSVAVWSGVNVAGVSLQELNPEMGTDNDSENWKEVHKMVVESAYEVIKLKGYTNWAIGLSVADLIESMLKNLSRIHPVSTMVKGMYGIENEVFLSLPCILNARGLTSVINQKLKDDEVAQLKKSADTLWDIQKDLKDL
ASSAY EXPLANATION: LDHB enzyme inhibition
Type: biochemical
ENDPOINT NAME: pIC50
Give bare numbers, as −log10 of the molar value.

Illustrative cases are given below, each with its answer.
{"COMPOUND": "NS(=O)(=O)c1ccc(Cc2c(-c3ccc(F)c(OCc4ccc(C(F)(F)F)o4)c3)nn(-c3nc(C(=O)O)cs3)c2CC2CC2)cc1F [12j]", "SYSTEM UNDER TEST": "LDHB (Homo sapiens)", "pIC50": 8.22}
{"COMPOUND": "NS(=O)(=O)c1ccc(Cc2c(-c3ccc(F)c(NC(=O)c4ccccc4)c3)nn(-c3nc(C(=O)O)cs3)c2CC2CC2)cc1F [13i]", "SYSTEM UNDER TEST": "LDHB (Homo sapiens)", "pIC50": 8.70}
{"COMPOUND": "NS(=O)(=O)c1ccc(Cc2c(-c3ccc(F)c(OC4CC4)c3)nn(-c3nc(C(=O)O)cs3)c2CC2CC2)cc1F [12e]", "SYSTEM UNDER TEST": "LDHB (Homo sapiens)", "pIC50": 8.52}
{"COMPOUND": "NS(=O)(=O)c1ccc(Cc2c(-c3cccc(OCc4ccccc4)c3)nn(-c3nc(C(=O)O)cs3)c2CC2CC2)cc1F [12g]", "SYSTEM UNDER TEST": "LDHB (Homo sapiens)", "pIC50": 8.30}
{"COMPOUND": "NS(=O)(=O)c1ccc(Cc2c(-c3cccc(N4CCOCC4)c3)nn(-c3nc(C(=O)O)cs3)c2CC2CC2)cc1F [13a]", "SYSTEM UNDER TEST": "LDHB (Homo sapiens)", "pIC50": 8.10}
{"COMPOUND": "NS(=O)(=O)c1ccc(Cc2c(-c3ccc(F)c(C(=O)NCc4ccccc4)c3)nn(-c3nc(C(=O)O)cs3)c2CC2CC2)cc1F [14d]", "SYSTEM UNDER TEST": "LDHB (Homo sapiens)", "pIC50": 8.70}
{"COMPOUND": "NS(=O)(=O)c1ccc(Cc2c(-c3ccc(F)c(OCc4cccc(F)c4)c3)nn(-c3nc(C(=O)O)cs3)c2CC2CC2)cc1F [12h]", "SYSTEM UNDER TEST": "LDHB (Homo sapiens)", "pIC50": 8.30}
{"COMPOUND": "NS(=O)(=O)c1ccc(Cc2c(-c3ccc(F)c(OCC4CC4(F)F)c3)nn(-c3nc(C(=O)O)cs3)c2CC2CC2)cc1F (centres unmarked) [12b]", "SYSTEM UNDER TEST": "LDHB (Homo sapiens)", "pIC50": 8.52}
{"COMPOUND": "NS(=O)(=O)c1ccc(Cc2c(-c3ccc(F)c(C(=O)N4CCCC4)c3)nn(-c3nc(C(=O)O)cs3)c2CC2CC2)cc1F [14b]", "SYSTEM UNDER TEST": "LDHB (Homo sapiens)", "pIC50": 8.40}
{"COMPOUND": "NS(=O)(=O)c1ccc(Cc2c(-c3cccc(Nc4ccccc4)c3)nn(-c3nc(C(=O)O)cs3)c2CC2CC2)cc1 [13h]", "SYSTEM UNDER TEST": "LDHB (Homo sapiens)", "pIC50": 9.00}

Proceeding to the next compound to report its pIC50.
*Q* Looking for the measured pIC50 of Cc1ccc(Oc2cc(-c3nn(-c4nc(C(=O)O)cs4)c(CC4CC4)c3Cc3ccc(S(N)(=O)=O)c(F)c3)ccc2F)cc1 [12p] , can you help?
*A* 7.72
